I'd appreciate it if you could supply NanoBRET Fold Response values for the items below.
Molecular target: CCR7 (Homo sapiens, UniProt P32248)
Construct: purchased Promega (in-house HiBiT-GPCR construct library, NanoBRET)
Sequence (P32248 25-378): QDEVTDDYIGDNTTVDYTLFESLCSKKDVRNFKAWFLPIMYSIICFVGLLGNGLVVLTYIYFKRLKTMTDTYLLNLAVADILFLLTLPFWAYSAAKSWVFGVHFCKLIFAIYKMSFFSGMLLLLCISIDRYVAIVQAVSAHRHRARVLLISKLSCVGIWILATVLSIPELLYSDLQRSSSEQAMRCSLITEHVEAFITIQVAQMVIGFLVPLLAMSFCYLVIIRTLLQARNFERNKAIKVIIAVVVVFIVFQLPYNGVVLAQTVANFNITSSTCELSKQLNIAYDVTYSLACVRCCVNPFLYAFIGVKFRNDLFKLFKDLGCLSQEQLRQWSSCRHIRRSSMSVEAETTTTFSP
Experiment: NanoBRET screen HiBiT-CCR7 in HEK293
Type: binding
Details: CCR7; tracer 0.1μM
Method: Each tracer candidate was screened across the entire library of HiBiT-GPCR constructs using NanoBRET as the detection modality. As depicted in Figure 4A, the specificity of interactions was evaluated through decrease in BRET due to competitive displacement of a bound tracer by excess parental compound. Each tracer was analyzed for binding to each HiBiT-GPCR fusion in the absence and in the presence of competing parental compound. […]
Answers are plain numbers.

# count of solved cases: 4
compound	NanoBRET Fold Response
O=C(CCc1ccc2n1[B-](F)(F)[N+]1=C(c3ccc[nH]3)C=CC1=C2)NCc1ccc(C(=O)NCCOCCC(=O)N[C@@H]2CC[C@@]3(O)[C@H]4Cc5ccc(O)c6c5[C@@]3(CCN4CC3CC3)[C@H]2O6)cc1 [Naltrexone-3-NB590]	1.07
CC(C)N(CC[C@H](c1ccccc1)c1cc(CCNC(=O)c2ccc(CNC(=O)CCc3ccc4n3[B-](F)(F)[N+]3=C(c5ccc[nH]5)C=CC3=C4)cc2)ccc1O)C(C)C	1.00
O=C(CCOCCOCCOCCOCCNC(=O)CCc1ccc2n1[B-](F)(F)[N+]1=C(c3ccc[nH]3)C=CC1=C2)NCCCN1CCN(C2=Nc3ccccc3Oc3ccc(Cl)cc32)CC1	1.00
COc1ccccc1N1CCN(CCCCN2C(=O)c3ccc(CNC(=O)CCOCCNC(=O)c4ccc(CNC(=O)CCc5ccc6n5[B-](F)(F)[N+]5=C(c7ccc[nH]7)C=CC5=C6)cc4)cc3C2=O)CC1	1.01

Exercise: Item under review: CCCn1c(=O)c2[nH]c(-c3ccc(OCC(=O)NCCNC(=O)CCOCCNC(=O)c4ccc(CNC(=O)CCc5ccc6n5[B-](F)(F)[N+]5=C(c7ccc[nH]7)C=CC5=C6)cc4)cc3)nc2n(CCC)c1=O . Reported NanoBRET Fold Response?
Solution: 0.99

These entries and their values trace back to paper PMC8151276.
